system: Enterobacter cloacae; experiment: Inhibition of Metallo-beta-lactamase IMP-1 in Enterobacter cloacae clinical isolate assessed as MIC for meropenem antibacterial activity at 128 ug/ml (reference value: 32 ug/ml); conditions: dose 128.0 µg/ml
Endpoint name: MIC (µg/mL)
Provide only the numeric value, understood in µg/mL.

Task: Given the entry `O=C(O)c1cccc(C(=O)O)n1` , report its measured MIC.
Output: 0.25

Task: O=C(Cc1ccccc1)N[C@@H]1C(=O)N2C(C(=O)O)=C(CSC(C(=O)O)c3ccccc3)CS[C@H]12 (some centres undefined) , same question.
Output: 0.5

Task: `O=C(Cc1ccccc1)N[C@@H]1C(=O)N2C(C(=O)O)=C(CS[C@H](Cc3ccccc3)C(=O)O)CS[C@H]12` , same question.
Output: 0.5

Task: `O=C(Cc1ccccc1)N[C@@H]1C(=O)N2C(C(=O)O)=C(CSCc3ccccc3)CS[C@H]12` , same question.
Output: 4
